Entries and their measured IC50 follow.
- assay target: Full length DGKα (D21-10BG, SignalChem) (Homo sapiens, UniProt P23743)
- Sequence (P23743 whole entry): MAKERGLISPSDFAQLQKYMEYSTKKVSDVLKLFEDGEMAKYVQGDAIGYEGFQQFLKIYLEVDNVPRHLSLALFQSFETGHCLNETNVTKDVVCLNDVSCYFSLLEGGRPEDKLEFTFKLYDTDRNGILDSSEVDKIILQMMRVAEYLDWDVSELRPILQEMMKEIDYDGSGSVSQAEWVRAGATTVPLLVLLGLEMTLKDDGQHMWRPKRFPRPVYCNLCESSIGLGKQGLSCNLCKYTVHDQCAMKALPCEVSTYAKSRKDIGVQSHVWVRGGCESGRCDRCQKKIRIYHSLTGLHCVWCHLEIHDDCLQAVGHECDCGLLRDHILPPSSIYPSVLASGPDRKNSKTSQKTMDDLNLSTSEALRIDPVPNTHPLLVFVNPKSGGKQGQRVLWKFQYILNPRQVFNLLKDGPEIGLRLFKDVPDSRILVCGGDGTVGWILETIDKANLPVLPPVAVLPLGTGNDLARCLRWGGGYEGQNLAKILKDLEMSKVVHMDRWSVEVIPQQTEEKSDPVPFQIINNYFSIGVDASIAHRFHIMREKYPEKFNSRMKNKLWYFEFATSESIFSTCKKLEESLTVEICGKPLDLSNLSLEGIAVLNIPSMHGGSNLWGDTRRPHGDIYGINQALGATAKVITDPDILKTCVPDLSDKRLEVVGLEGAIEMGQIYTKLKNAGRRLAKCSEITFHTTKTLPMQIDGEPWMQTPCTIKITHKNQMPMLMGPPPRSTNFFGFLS
Give the quantity in nM, number only.

// known answers, use as guide
INSERT INTO results (compound, observed_result) VALUES
  ('CC[C@H]1CN(C(C)c2ccc(C(F)(F)F)cc2F)[C@H](CC)CN1c1cc(=O)n(C)n2cc(CC#N)nc12 (single isomer, unassigned) [Compound A92a]', 87),
  ('CC[C@H]1CN(C(C)c2ccc3nc(C)sc3c2)[C@H](CC)CN1c1cc(=O)n(C)n2cc(C=NOC)nc12 (single isomer, unassigned) [Compound A123bc]', 131),
  ('CC[C@H]1CN(C(C)c2ccc(C(C)(C)F)nc2)[C@H](CC)CN1c1cc(=O)n(C)n2cc(CC#N)nc12 (single isomer, unassigned) [Compound A46a]', 122);

For the next question, use this compound.
Find the measured IC50 of CC[C@H]1CN(C(C)c2ccc(OC(C)C)cc2)[C@H](CC)CN1c1cc(=O)n(C)n2cc(CC#N)nc12 (stereo partly shown) with Full length DGKα (D21-10BG, SignalChem) (Homo sapiens, UniProt P23743) as test system.
90

---

- assay target: Full length DGKα (D21-10BG, SignalChem) (Homo sapiens)
quantity name: pIC50
Please note pIC50 is a logarithmic value: minus log10 of concentration in mol/L. Answer with that number alone.

The examples below pair each entry with its known result.
INSERT INTO results (compound, quantity_name, observed_result) VALUES
  ('CC[C@H]1CN(C(C)c2ccc(C(C)(C)F)nc2)[C@H](CC)CN1c1cc(=O)n(C)n2cc(CC#N)nc12 (single isomer, unassigned) [Compound A46b]', 'pIC50', 6.17),
  ('[2H]C([2H])([2H])C(c1ccc2nc(C)sc2c1)N1C[C@H](CC)N(c2cc(=O)n(C([2H])([2H])[2H])n3cc(CC#N)nc23)C[C@H]1CC (single isomer, unassigned) [Compound A95b]', 'pIC50', 5.82),
  ('CC[C@@H]1CN(c2cc(=O)n(C)n3cc(CC#N)nc23)[C@@H](C)CN1C(C)c1ccc2nccnc2c1 (single isomer, unassigned) [Compound A13a]', 'pIC50', 6.02),
  ('COc1cnc2ccc(C(C)N3C[C@H](C)N(c4cc(=O)n(C)n5cc(CC#N)nc45)C[C@H]3C)cc2n1 (some centres unmarked)', 'pIC50', 5.99);

# input for lookup
Identify pIC50 associated with the compound CC[C@H]1CN(C(C)c2ccc(OC(C)C)nc2)[C@H](CC)CN1c1cc(=O)n(C)n2cc(CC#N)nc12 (single isomer, unassigned) [Compound A45b]
6.08

Taken from patent US20240327417A1.
